Biological target: p110γ (Homo sapiens (Human), UniProt P48736)
Sequence (P48736 whole entry): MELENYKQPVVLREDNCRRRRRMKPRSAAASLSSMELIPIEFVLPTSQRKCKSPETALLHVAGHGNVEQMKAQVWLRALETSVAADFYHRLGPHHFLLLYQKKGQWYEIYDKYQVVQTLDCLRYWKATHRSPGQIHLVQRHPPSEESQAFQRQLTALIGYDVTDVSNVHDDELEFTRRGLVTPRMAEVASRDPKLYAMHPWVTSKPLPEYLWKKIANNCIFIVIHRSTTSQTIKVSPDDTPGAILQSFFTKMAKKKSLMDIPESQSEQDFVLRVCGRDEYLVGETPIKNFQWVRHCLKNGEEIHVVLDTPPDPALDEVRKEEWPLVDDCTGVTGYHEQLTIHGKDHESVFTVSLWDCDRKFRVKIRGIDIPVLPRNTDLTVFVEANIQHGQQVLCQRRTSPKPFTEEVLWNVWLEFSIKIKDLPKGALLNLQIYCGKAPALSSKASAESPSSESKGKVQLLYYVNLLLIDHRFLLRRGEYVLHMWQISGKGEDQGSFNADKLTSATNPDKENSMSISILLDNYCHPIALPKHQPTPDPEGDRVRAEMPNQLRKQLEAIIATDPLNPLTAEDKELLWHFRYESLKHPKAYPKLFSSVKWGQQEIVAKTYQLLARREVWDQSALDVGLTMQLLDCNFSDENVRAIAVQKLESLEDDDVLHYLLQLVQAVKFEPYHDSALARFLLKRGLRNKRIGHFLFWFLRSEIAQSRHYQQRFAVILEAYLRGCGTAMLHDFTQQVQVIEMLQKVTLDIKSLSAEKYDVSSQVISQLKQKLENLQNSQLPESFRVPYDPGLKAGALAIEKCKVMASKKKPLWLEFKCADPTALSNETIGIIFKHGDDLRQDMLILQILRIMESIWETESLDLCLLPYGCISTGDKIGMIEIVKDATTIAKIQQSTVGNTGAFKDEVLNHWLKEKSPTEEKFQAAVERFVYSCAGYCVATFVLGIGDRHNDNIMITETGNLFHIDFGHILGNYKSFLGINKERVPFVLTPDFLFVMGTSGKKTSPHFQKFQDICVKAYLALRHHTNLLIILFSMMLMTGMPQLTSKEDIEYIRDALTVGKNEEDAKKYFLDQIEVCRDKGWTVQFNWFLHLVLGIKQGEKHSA
Assay: PI 3-Kinase (human) HTRF assay, p110γ
Type: biochemical
Details: in vitro; read-out: PI3K γ IC50
pIC50: −log10 of the molar value.
Give measured pIC50 for each item. Keep answers brief.

# input Enter reported pIC50 observed with p110γ (Homo sapiens (Human), UniProt P48736) for CN(C)C1CN(c2cnc3ccc(-c4ccc5oc(N)nc5c4)cc3n2)C1 [compound 366]
# output > 5.00

# input Enter reported pIC50 observed with p110γ (Homo sapiens (Human), UniProt P48736) for CCN(CC)CC(=O)N1CCN(c2cnc3ccc(-c4ccc5oc(N)nc5c4)cc3n2)CC1 [compound 279]
# output > 5.00

# input Enter reported pIC50 observed with p110γ (Homo sapiens (Human), UniProt P48736) for CC(=O)N1CCC(Nc2ncnc3ccc(-c4ccc5oc(N)nc5c4)nc23)CC1 [compound 211]
# output > 7.00

# input Enter reported pIC50 observed with p110γ (Homo sapiens (Human), UniProt P48736) for Nc1nc2cc(-c3ccn4ncc(C(=O)N5CCOCC5)c4c3)ccc2o1 [compound 347]
# output > 6.00

# input Enter reported pIC50 observed with p110γ (Homo sapiens (Human), UniProt P48736) for Nc1nc2ccc(-c3ccc4nnc(-c5ccncc5)n4c3)cc2o1 [compound 230]
# output > 6.00

# input Enter reported pIC50 observed with p110γ (Homo sapiens (Human), UniProt P48736) for Nc1nc2cc(-c3ccc4ncc(N5CC(C(=O)N6CCN(C7CC7)CC6)C5)nc4c3)ccc2o1 [compound 276]
# output > 6.00

# input Enter reported pIC50 observed with p110γ (Homo sapiens (Human), UniProt P48736) for Cc1cc(-c2ccc3oc(N)nc3c2)cc2c(C(=O)N3CCCC3)cnn12 [compound 368]
# output > 6.00

# input Enter reported pIC50 observed with p110γ (Homo sapiens (Human), UniProt P48736) for CN1CCN(C(=O)C2CN(c3cnc4ccc(-c5ccc6oc(N)nc6c5)cc4n3)C2)CC1 [compound 253]
# output > 5.00
